This collection of values is drawn from patent US20250154138A1.

- target system: human IL-17A / human IL-17RA (Homo sapiens (Human), UniProt Q16552)
- Sequence (Q16552 24-155): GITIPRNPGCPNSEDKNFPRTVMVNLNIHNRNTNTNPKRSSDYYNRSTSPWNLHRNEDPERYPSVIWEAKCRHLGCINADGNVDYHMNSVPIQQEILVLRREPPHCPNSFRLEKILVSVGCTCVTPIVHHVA
- assay text: Human IL-17A biochemical assay (HTRF, blocking of IL-17A binding to IL-17RA)
- particulars: 0.4 nM IL-17A, 0.3 nM IL-17RA, max compound concentration 10 uM
- Method: Compounds disclosed herein were tested for blocking of human IL-17A (Cat: C774, novoprotein) protein with its receptor human IL-17RA (Cat: C153, novoprotein) in an assay based on Homogeneous Time Resolved Fluorescence. […] The HTRF signals (ex337 nm, em620 nm/665 nm) were read on BMG PHERAstar FSX instrument. […]
measurement type: pIC50
Field pIC50 (float): negative decimal logarithm of the concentration in molar.

CNC(=O)C1(N2CC3(CC3)CNC2=O)Cc2ccc(NC(=O)[C@@H](NC(=O)c3ccnn3C)C3CCCCC3)cc2C1 (stereo partly shown) = 8.02
CNC(=O)C1(N2CC(CC3CC3)NC2=O)Cc2ccc(NC(=O)[C@@H](NC(=O)c3ccnn3C)C3CCCCC3)cc2C1 (stereo partly shown) = 6.15
Cc1nonc1C(=O)N[C@H](C(=O)Nc1ccc2c(c1)CC(C(=O)Nc1ccc(Cl)cc1Cl)(N1C[C@@H](C(C)C)NC1=O)C2)C(C1CC1)C1CC1 (stereo partly shown) = 5.60

Q: Fetch value of pIC50 on human IL-17A / human IL-17RA (Homo sapiens (Human), UniProt Q16552) for CNC(=O)C1(N2C[C@@H](C(C)C)NC2=O)Cc2ccc(NC(=O)[C@@H](NC(=O)Cc3ccccc3)C3CCCCC3)cc2C1 (stereo partly shown) .
A: 6.65

Q: Fetch value of pIC50 on human IL-17A / human IL-17RA (Homo sapiens (Human), UniProt Q16552) for CNC(=O)C1(N2CCCNC2=O)Cc2ccc(NC(=O)[C@@H](NC(=O)c3ccnn3C)C3CCCCC3)cc2C1 (stereo partly shown) .
A: 6.51

Q: Fetch value of pIC50 on human IL-17A / human IL-17RA (Homo sapiens (Human), UniProt Q16552) for COCC1(N2C[C@@H](C(C)C)NC2=O)Cc2ccc(NC(=O)[C@@H](NC(=O)c3ccnn3C)C(C3CC3)C3CC3)cc2C1 (stereo partly shown) .
A: 7.28

Q: Fetch value of pIC50 on human IL-17A / human IL-17RA (Homo sapiens (Human), UniProt Q16552) for CNC(=O)C1(N2CC3(CC3)CNC2=O)Cc2ccc(NC(=O)[C@@H](NC(=O)c3nonc3C)C3CCC(F)(F)CC3)cc2C1 (stereo partly shown) .
A: 7.27

Q: Fetch value of pIC50 on human IL-17A / human IL-17RA (Homo sapiens (Human), UniProt Q16552) for CNC(=O)C1(N2C[C@@H](C(C)C)NC2=O)Cc2ccc(NC(=O)[C@@H](Nc3nc4ccccc4o3)C3CCCCC3)cc2C1 (stereo partly shown) .
A: 6.31

Q: Fetch value of pIC50 on human IL-17A / human IL-17RA (Homo sapiens (Human), UniProt Q16552) for Cc1ccccc1NC(=O)C1(N2C[C@@H](C(C)C)NC2=O)Cc2ccc(NC(=O)[C@@H](NC(=O)c3nonc3C)C(C3CC3)C3CC3)cc2C1 (stereo partly shown) .
A: 7.24

Q: Fetch value of pIC50 on human IL-17A / human IL-17RA (Homo sapiens (Human), UniProt Q16552) for CNC(=O)C1(N2C[C@@H](C(C)C)NC2=O)Cc2ccc(NC(=O)[C@@H](NC(=O)c3ccnn3CCO)C3CCCCC3)cc2C1 (stereo partly shown) .
A: 7.14
